target.or.test.system: group 1: ZNF566 and ARNTL homologous peptide/HLA-A*02:01 complexes (mixed)
experiment.notes: SPR (BIAcore T200), crude scFv captured, mixed complexes flowed over
Threshold 30 RU: SPR binding level strictly smaller gives Satisfied, otherwise Not satisfied.

{"binder": "45-AS170036 VL1VH1-56Y98I108S (scFv) scFv: QSALTQPRSVSGSPGQSVTISCAGTSSDVGSENYVSWYQQHPGKAPKLMIYQVNKRASGVPDRFSGSKSGNTASLTISGLQAEDEADYYCASYRSSDINIVFGGGTKLTVLGGGGSGGGGSGGGGSEVQLVESGGGLVQPGGSLRLSCAASGFTFSSYAMSWVRQAPGKGLEWVSTINSGTYSPYYADSVKGRFTISRDNSKNTLYLQMNSLRAEDTAVYYCAKNFFDGSWFLSPPAMDYWGQGTLVTVSSHHHHHH", "cat": "Satisfied"}
{"binder": "15-AS170036 VL1VH1-57M98Q (scFv) scFv: QSALTQPRSVSGSPGQSVTISCAGTSSDVGSENYVSWYQQHPGKAPKLMIYQVNKRASGVPDRFSGSKSGNTASLTISGLQAEDEADYYCASYRSSDQNIVFGGGTKLTVLGGGGSGGGGSGGGGSEVQLVESGGGLVQPGGSLRLSCAASGFTFSSYAMSWVRQAPGKGLEWVSTINSGTGMPYYADSVKGRFTISRDNSKNTLYLQMNSLRAEDTAVYYCAKNFFDGSWFLGPPAMDYWGQGTLVTVSSHHHHHH", "cat": "Satisfied"}

Input: Input 67-AS170036 VL1VH1-57K98F108A (scFv) scFv: QSALTQPRSVSGSPGQSVTISCAGTSSDVGSENYVSWYQQHPGKAPKLMIYQVNKRASGVPDRFSGSKSGNTASLTISGLQAEDEADYYCASYRSSDFNIVFGGGTKLTVLGGGGSGGGGSGGGGSEVQLVESGGGLVQPGGSLRLSCAASGFTFSSYAMSWVRQAPGKGLEWVSTINSGTGKPYYADSVKGRFTISRDNSKNTLYLQMNSLRAEDTAVYYCAKNFFDGSWFLAPPAMDYWGQGTLVTVSSHHHHHH ; condition: SPR binding level strictly below 30 RU. Does it hold?
Output: Not satisfied

Input: Please do the same for 82-AS170036 VL1VH1-57M98Q108A (scFv) scFv: QSALTQPRSVSGSPGQSVTISCAGTSSDVGSENYVSWYQQHPGKAPKLMIYQVNKRASGVPDRFSGSKSGNTASLTISGLQAEDEADYYCASYRSSDQNIVFGGGTKLTVLGGGGSGGGGSGGGGSEVQLVESGGGLVQPGGSLRLSCAASGFTFSSYAMSWVRQAPGKGLEWVSTINSGTGMPYYADSVKGRFTISRDNSKNTLYLQMNSLRAEDTAVYYCAKNFFDGSWFLAPPAMDYWGQGTLVTVSSHHHHHH as well.
Output: Satisfied

Input: Please do the same for 34-AS170036 VL1VH1-98I108A (scFv) scFv: QSALTQPRSVSGSPGQSVTISCAGTSSDVGSENYVSWYQQHPGKAPKLMIYQVNKRASGVPDRFSGSKSGNTASLTISGLQAEDEADYYCASYRSSDINIVFGGGTKLTVLGGGGSGGGGSGGGGSEVQLVESGGGLVQPGGSLRLSCAASGFTFSSYAMSWVRQAPGKGLEWVSTINSGTGSPYYADSVKGRFTISRDNSKNTLYLQMNSLRAEDTAVYYCAKNFFDGSWFLAPPAMDYWGQGTLVTVSSHHHHHH as well.
Output: Satisfied
